Could you please report measured binding signal for the items listed next?
Target: T1, RBFOX1 RRM RbFoxmut (Fox-RRM*) (Homo sapiens, UniProt Q9NWB1 109-208, R118D;E147R;N151S;E152T)
T1 sequence: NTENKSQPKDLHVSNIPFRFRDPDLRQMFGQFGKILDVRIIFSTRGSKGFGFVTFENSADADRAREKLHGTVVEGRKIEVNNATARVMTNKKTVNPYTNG
Test: EMSA; HiTS-Eq, 1 nM pool, 10 min; buffer printed only for the single-RNA assays: 10 mM Tris pH 7.5, 150 mM NaCl, 3.4 mM EDTA, 0.001% NP-40, 30 C
Conditions: tags: His6 N-terminal (pET28a); label: 5' 32P
Whole data set: some 16,000 sequences, median “ka relative to ugcaugu” near 0.096, cut for the highest 2% near 0.35. What follows is part of a selection rich in the highest values, with near analogues and random picks from the rest.

Query: Look at this binder and give its reported binding signal. GGAUCGG (DNA:RNA) RNA: GGGAGACCGGAAUUCAGAUUGUCCGGAUCGGUUAAAUCCCGUCGUAGCCACCA DNA 1: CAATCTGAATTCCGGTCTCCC DNA 2: TGGTGGCTACGACGGGATT
Result: 0.176 KA relative to UGCAUGU

Query: Look at this binder and give its reported binding signal. AUGACAU (DNA:RNA) RNA: GGGAGACCGGAAUUCAGAUUGUCCAUGACAUUUAAAUCCCGUCGUAGCCACCA DNA 1: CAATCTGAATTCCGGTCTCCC DNA 2: TGGTGGCTACGACGGGATT
Result: 0.0668 KA relative to UGCAUGU

Query: Look at this binder and give its reported binding signal. AUGACGC (DNA:RNA) RNA: GGGAGACCGGAAUUCAGAUUGUCCAUGACGCUUAAAUCCCGUCGUAGCCACCA DNA 1: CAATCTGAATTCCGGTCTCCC DNA 2: TGGTGGCTACGACGGGATT
Result: 0.0829 KA relative to UGCAUGU

Query: Look at this binder and give its reported binding signal. GUUCCGU (DNA:RNA) RNA: GGGAGACCGGAAUUCAGAUUGUCCGUUCCGUUUAAAUCCCGUCGUAGCCACCA DNA 1: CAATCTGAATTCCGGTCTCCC DNA 2: TGGTGGCTACGACGGGATT
Result: 0.127 KA relative to UGCAUGU
